B1: library; numbered along this chain (parent)
chain: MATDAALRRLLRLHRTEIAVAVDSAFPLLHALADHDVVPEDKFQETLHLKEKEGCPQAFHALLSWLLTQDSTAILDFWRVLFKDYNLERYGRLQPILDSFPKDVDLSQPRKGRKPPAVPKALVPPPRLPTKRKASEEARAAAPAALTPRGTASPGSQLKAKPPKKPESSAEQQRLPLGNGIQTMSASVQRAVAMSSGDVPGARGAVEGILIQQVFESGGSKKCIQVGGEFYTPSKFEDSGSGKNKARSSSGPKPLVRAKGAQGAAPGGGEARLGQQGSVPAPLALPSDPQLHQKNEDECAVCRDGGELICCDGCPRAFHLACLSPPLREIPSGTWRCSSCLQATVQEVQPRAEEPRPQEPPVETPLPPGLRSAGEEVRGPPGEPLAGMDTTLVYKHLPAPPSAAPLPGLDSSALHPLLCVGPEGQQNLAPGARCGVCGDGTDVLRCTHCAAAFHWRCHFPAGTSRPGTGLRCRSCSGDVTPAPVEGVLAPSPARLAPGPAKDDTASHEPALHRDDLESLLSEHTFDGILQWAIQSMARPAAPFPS

variants of: B1; test: AIRE transcriptional activation functional score (insulin promoter-GFP; nonsense median 0, synonymous median 1) (normalised score); higher = higher AIRE activity (more reporter activation); details: with insulin promoter-GFP reporter in HEK293
AIRE transcriptional activation functional score below 1 gives class 0; AIRE transcriptional activation functional score at or above it gives class 1.

Use the examples below as a reference point.
K221F class 0
F318N class 1
G91V class 0
L488D class 0
P143C class 0
G277R class 1
W455L class 1
R378K class 1

Proceed to the following item.
Please check the record R190M and state if its AIRE transcriptional activation functional score is at or above 1.
class 0

Where do these numbers come from? They come from the supplement of paper PMC12667976.
